- target_desc: T1, Human EphA2 (Ecto) (Human, UniProt P29317 24-537)
- T1 construct: extracellular domain
- assay_notes: FP competition; competitor Compound 66
- Description: Peptides without a fluorescent tag were tested in competition with a peptide with a fluorescent tag and a known Kd (Table 2). Peptides were diluted to an appropriate concentration in assay buffer as described in the direct binding assay with a maximum of 5% DMSO, then serially diluted 1 in 2. […] Measurements were conducted as for the direct binding assay, however the gain was determined prior to the first measurement.
pKi: −log10 of the molar value. Numbered stars: 1 amine (or outer) side, 2 acyl side, 3 side chain; on linkers, the order of the positions; unused ones are H or OH. Bridge positions count the residues as written; N and C are the ends. Square brackets hold non-standard residues; d marks the D form. Ends that are not written are not given here. 1Nal = N[C@@H](Cc1cccc2ccccc12)C(=O)O; TBMB = c1c(C[*:1])cc(C[*:3])cc1C[*:2]; hArg = N=C(N)NCCCC[C@H](N)C(=O)O; Sar = CNCC(=O)O
test_readout: pKi

{"columns": ["binder", "pKi"],
 "data": [
  ["[Sar][Sar]ACP[1Nal]GPFWCPVN[hArg]PGC (linker 4-11-18 via TBMB) [Compound 122]", 8.10],
  ["ACMNDWLCSLGWTCA (linker 2-8-14 via TBMB) [Compound 24]", 7.08]
]}

P = ACPWGPAWCPVRDTNCA (linker 2-9-16 via TBMB) [Compound 42]
Q = [Sar][Sar]ACP[1Nal]GPFWCPV[dA][hArg]PGC (linker 4-11-18 via TBMB) [Compound 133]
**Q:** Which item exceeds the other in pKi, P or Q ? Provide the label of your selected option as the answer.
**A:** Q
(Q: 8.43, P: 6.50)
